measurement_protocol: self-splicing fitness, log relative to wild type (ln ratio); higher = more splicing; Tetrahymena group I intron in knt gene, E. coli kanamycin selection, DiMSum; sequences stand for … in CUCUCU…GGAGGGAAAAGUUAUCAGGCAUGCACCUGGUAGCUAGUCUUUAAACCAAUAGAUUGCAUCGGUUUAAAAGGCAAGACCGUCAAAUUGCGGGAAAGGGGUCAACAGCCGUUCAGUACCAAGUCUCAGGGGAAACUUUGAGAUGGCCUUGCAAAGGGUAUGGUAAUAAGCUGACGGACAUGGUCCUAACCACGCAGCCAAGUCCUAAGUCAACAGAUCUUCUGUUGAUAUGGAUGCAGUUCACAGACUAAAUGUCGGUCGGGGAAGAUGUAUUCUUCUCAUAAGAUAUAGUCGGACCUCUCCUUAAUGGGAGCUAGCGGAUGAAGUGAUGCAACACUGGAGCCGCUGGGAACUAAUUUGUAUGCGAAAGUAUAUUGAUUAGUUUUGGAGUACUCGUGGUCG;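 also: selection with 25 µg/mL kanamycin versus none on LB agar overnight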
experimental_setup: 37 °C
Given measured self-splicing fitness (ln), output yes if it is greater than or equal to -2 and no if not.

1. AGGCAGCAAUAUUACGAAGG : yes
2. GCAUAGCAAUAUUACGCUUA : yes
3. GUAAAGCAAUAUUACGCGUG : yes
4. GGGGAGCAAUAUUACGCUAU : yes
5. UUGAAGCAAUAUUACGAAUG : yes
6. GACGAGCAAUAUUACGCUCG : yes
7. CGGCAGCAAUAUUACGAGCC : yes
8. GUCGAGCAAUAUUACGCAAG : no
9. AGGUAGCAAUAUUACGGCCA : yes
10. GAGGAGCAAUAUUACGACGU : yes
11. GUACAGCAAUAUUACGAAGU : yes
12. CACCAGCAAUAUUACGAAUU : no
13. UACGAGCAAUAUUACGCGCG : yes
14. ACUGAGCAAUAUUACGACAG : yes
15. AAUGAGCAAUAUUACGCAUA : no
